- TARGET OR SYSTEM: Cellular tumor antigen p53 (Homo sapiens) (UniProt P04637)
- Sequence (P04637 whole entry, looked up): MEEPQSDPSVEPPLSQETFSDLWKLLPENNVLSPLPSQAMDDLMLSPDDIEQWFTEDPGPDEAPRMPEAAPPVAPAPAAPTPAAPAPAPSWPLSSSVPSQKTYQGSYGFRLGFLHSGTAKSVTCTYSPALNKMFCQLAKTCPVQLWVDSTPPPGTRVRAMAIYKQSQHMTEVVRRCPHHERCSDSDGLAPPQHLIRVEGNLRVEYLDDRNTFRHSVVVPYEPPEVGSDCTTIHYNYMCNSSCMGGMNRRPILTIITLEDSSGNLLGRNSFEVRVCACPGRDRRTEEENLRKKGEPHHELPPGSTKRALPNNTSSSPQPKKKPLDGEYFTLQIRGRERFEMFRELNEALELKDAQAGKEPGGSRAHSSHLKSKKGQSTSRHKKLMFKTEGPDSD
- EXPERIMENT: TOX21_p53_BLA_p5_ratio: Tox21 HCT-116 p53 Agonism Beta-lactamase Assay, Ratio, Phase 5 (AID 2283599)
Records with an inconclusive call do not appear. Calls of active or inactive are those of the source. Rule for the calls: active = hit-call score of the fitted dose curve at least 0.9, where 1 is the maximum; inconclusive = response in the unintended direction; inactive = score below 0.9.
MEASURED ATTRIBUTE: AC50

Study these solved cases before continuing.
Supply recorded AC50 for O=C(CCCN1CCN(c2ccc(F)cc2)CC1)NC1c2ccccc2CSc2ccccc21 (stereo not drawn) here. inactive

Please give the documented AC50 of `C=C[Si](OC(=C)C)(OC(=C)C)OC(=C)C` inactive

Specify AC50 for CC(C)C(O)(c1ccc(OC(F)(F)F)cc1)c1cncnc1 (stereo not drawn) and stop. inactive

// fetch AC50 given entry `CCCN1CCCC[C@H]1C(=O)Nc1c(C)cccc1C` inactive

Output AC50 of N[C@H]1C(O)O[C@H](CO)[C@@H](O)[C@@H]1O (stereo partly drawn) inactive

---
Indicate the recorded AC50 value for this compound: `COc1cc2c(cc1OC)-c1cc(=Nc3c(C)cc(C)cc3C)n(C)c(=O)n1CC2` 41.3 µM (active)

Report measured AC50; entry is `O=C(c1ccc(O)cc1)c1ccc(O)c(O)c1O` inactive

Identify the reported AC50 for the following entry. CC(CCC(=O)O)C(=O)O (stereo not drawn) inactive

Name the recorded AC50 of the compound listed here: `Cc1cc(-c2ccc(N=Nc3cc(S(=O)(=O)O)c4ccccc4c3N)c(C)c2)ccc1N=Nc1cc(S(=O)(=O)O)c2ccccc2c1N` inactive

Output measured AC50 for this item: `C=C1CC[C@H](O)C/C1=C/C=C1\CCC[C@]2(C)[C@@H]([C@H](C)CCCC(C)C)CC[C@@H]12` inactive

Write down AC50 measured for item `CCCCCCCCCCC[C@@H](C[C@@H]1OC(=O)[C@H]1CCCCCC)OC(=O)[C@H](CC(C)C)NC=O` inactive

Name the recorded AC50 of the compound listed here: `NC(=O)n1c(O)c(C(=O)c2cccs2)c2cc(Cl)ccc21` 34.4 µM (active)

Provide one value: measured AC50 of `N[C@@H](C(=O)N[C@@H]1C(=O)N2C(C(=O)O)=C(CSc3cn[nH]n3)CS[C@H]12)c1ccc(O)cc1` inactive

Return value of AC50 for input `O=C1c2ccccc2C(=O)C1(O)O` , no commentary. 29 µM (active)

====

- EXPERIMENT: ATG_TGFb_CIS: Attagene CIS-FACTORIAL HepG2 Assay for human Transforming Growth Factor (TGF) (AID 2282967)
- CONDITIONS: HepG2 Attagene CIS TGFb reporter, mRNA transcription; actives raise or lower the signal
Calls of active or inactive are those of the source. The calls were made as follows: active = hit-call score of the fitted dose curve at least 0.9, where 1 is the maximum; inactive = score below 0.9.
Assign a class; possible classes are active, inactive

I would be grateful if you could indicate the recorded call for `CC/C=C\CC/C=C/C(OCC)OCC` . inactive

What classification did CCC(C)NC(N)=O (stereo not drawn) end up with in this test? inactive

As a next step, examine the compound that follows.
Assay outcome for `C/C=C(\C)C(=O)OCC/C=C\CC` : what was it? inactive

====

- Read-out: Human Leukocyte Antigen - DR isotype (HLADR), HLA-DRA (gene 3122)
- EXPERIMENT: BSK_3C_HLADR: BioMAP Diversity Plus: 3C Assay for Human Leukocyte Antigen - DR isotype (HLADR) Biomarker Activity (AID 2283019);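 for outcome: ELISA of cell-surface HLA-DR on HUVEC 24 h after dosing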
- CONDITIONS: primary human endothelial cells (HUVEC); actives raise or lower the signal
Activity calls are given as the source filed them. The calls were made as follows: active = hit-call score of the fitted dose curve at least 0.9, where 1 is the maximum; inactive = score below 0.9.
Your response should consist of one outcome taken from TRUE for active, FALSE for inactive

Dear all, I need the recorded test outcome for `O=[N+]([O-])c1cc(S(=O)(=O)Nc2ccccc2)ccc1Nc1ccccc1` , thank you. TRUE

Assay result, entry `CCCCCCCCCCCCCCCCCC[N+](C)(C)C` — outcome? TRUE

Just curious, what result did `C1CN(CCOCCN2CCOCC2)CCO1` get here? FALSE

So what was the verdict on `CC[N+](CC)(CC(=O)Nc1c(C)cccc1C)Cc1ccccc1` in this test? FALSE

In this assay, the call recorded for `CN(C)c1ccc(C(c2ccccc2)c2ccc(N(C)C)cc2)cc1` was what? TRUE

// outcome(item) with item = `COc1ccccc1Oc1c(NS(=O)(=O)c2ccc(C(C)(C)C)cc2)nc(-c2ncccn2)nc1OCCO` FALSE

How was CC(C)CC(=O)CC(C)CC(C)C (configuration not stated) classified in this test? TRUE

Recorded test outcome, item `Cc1cc(-n2nc3ccc(Cl)cc3n2)c(O)c(C(C)(C)C)c1` FALSE

Outcome? `CN(C)Cc1cc(C(C)(C)C)c(O)c(C(C)(C)C)c1` FALSE

For `Sc1nc2ccccc2s1` , which call appears in the assay record? FALSE

New cases:
Please state the recorded outcome for this compound: CCCCCCCCCCC1CO1 (configuration not stated) TRUE

Which outcome was assigned to `COC(=O)/C=C\C(=O)OC` in this test? FALSE

====

- EXPERIMENT: IUF_NPC2-5_cell_number_120hr: Cell Number Assessment at 120 hours in the Leibniz Research Institute for Environmental Medicine (IUF) Neural Progenitor Cell Migration and Differentiation Assay (NPC2-5) (AID 2284308);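 note: count of Hoechst-stained nuclei in migration zone around plated human neural progenitor spheres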
Active and inactive are the calls of the source. The calls were made as follows: active = hit-call score of the fitted dose curve at least 0.9, where 1 is the maximum; inactive = score below 0.9.
# valid calls are y (active), n (inactive); nothing else

Hi team, can someone confirm the assay call for `Oc1cccc2ccccc12` ? n

Per the assay record, what outcome was assigned to `NC(N)=Nc1nc(CSCCC(N)=NS(N)(=O)=O)cs1` ? n

Could you check what this test reported for `Cc1c(O)cccc1C(=O)N[C@@H](CSc1ccccc1)[C@H](O)CN1C[C@H]2CCCC[C@H]2C[C@H]1C(=O)NC(C)(C)C` ? y

Continuing:
Just curious, what result did CN(C)CCC(c1ccc(Cl)cc1)c1ccccn1 (centres undefined) get here? n

Short answer needed: outcome of this test for `[Cl-].[Cl-].[NH2-].[NH2-].[Pt+4]` ? y

I would be grateful if you could indicate the recorded call for CC(C)(C)NCC(O)c1cc(O)cc(O)c1 (centres undefined) . n

Hi, do you know how `C[C@@H]1C[C@H]2[C@@H]3CCC4=CC(=O)C=C[C@]4(C)[C@@]3(F)[C@@H](O)C[C@]2(C)[C@@]1(O)C(=O)CO` came out in this test? n

Any idea what this test logged for `CC1(C)S[C@@H]2[C@H](NC(=O)[C@H](N)c3ccc(O)cc3)C(=O)N2[C@H]1C(=O)O` ? n

Please let me know the test result on file for `C[C@H](CS)C(=O)N1CCC[C@H]1C(=O)O` . n

====

- EXPERIMENT: ACEA_ER_AUC_viability: ACEA Biosciences xCELLigence Real-Time Cell Analysis on Estrogen Receptor Agonism for Viability (AID 2283782);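 note: continuous compound exposure with impedance area under curve over 80 h; hit means loss of impedance signal meaning reduced cell growth or viability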
Records with an inconclusive call do not appear. The source made the active and inactive calls. The calls were made as follows: active = hit-call score of the fitted dose curve at least 0.9, where 1 is the maximum; inconclusive = response in the unintended direction; inactive = score below 0.9.
Parameter call: string, one of active, inactive

Solved entries:
What classification did `COC(=O)[C@]1(C)CCC[C@@]2(C)[C@H]1CC=C1C=C(C(C)C)CC[C@@H]12` end up with in this test? active

Look up the recorded call for `C=CCOC(=O)C(=C)C` in this test. inactive

Returns: the outcome recorded for `Clc1ccccn1` in this assay. inactive

I would be grateful if you could indicate the recorded call for `NCc1ccccc1` . active

For `N#CCN(CC#N)CCN(CC#N)CC#N` , what call appears in the results of this test? inactive

Write down the call the test reported for this molecule. Item: `O=[N+]([O-])c1ccc2nc[nH]c2c1` inactive

Could you check what this test reported for CC(COc1ccccc1)N(CCCl)Cc1ccccc1 (stereo not given) ? active

Recorded test call requested for `COC(=O)/C=C\C(=O)OC` active

Check the results log: what was the call for `CCO[Si](OCC)(OCC)c1ccccc1` ? inactive

Given `CCCCCCCC#N` , state the outcome it received in this test. inactive

New cases:
Returns: the outcome recorded for `CO[Si](CCCNCCN)(OC)OC` in this assay. inactive

Given `O=S(=O)(O)c1cccc2ccccc12` , state the outcome it received in this test. inactive

Tell me the recorded outcome of this test for `CCCC/C=C/CCCCO` . active

Dear all, I need the recorded test outcome for `CC1=C(CC=O)C(C)(C)CCC1` , thank you. active

For this molecule, state the assay outcome: `CC1(C)CC(N)CC(C)(C)N1` inactive

====

- EXPERIMENT: TOX21_p53_BLA_p3_viability: Viability Assessment in the Tox21 HCT-116 p53 Agonism Beta-lactamase Assay, Phase 3 (AID 2283593);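 note: cells exposed to compound for 16 h before reading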
Inconclusive results are not listed. Active and inactive are the calls of the source. The calls were made as follows: active = hit-call score of the fitted dose curve at least 0.9, where 1 is the maximum; inconclusive = response in the unintended direction; inactive = score below 0.9.
Hello, when you answer, please use one of the following outcomes: active, inactive

Each compound tested received a call. Report the one for CCCCN(CCCC)CC(O)c1cc(Cl)cc2c1-c1ccc(Cl)cc1/C2=C/c1ccc(Cl)cc1 (stereo unspecified) . inactive

Status in this test for `CC1=C(/C=C/C(C)=C/C=C/C(C)=C/C=O)C(C)(C)CCC1` ? active

Dear all, I need the recorded test outcome for `CCCCN(CCCC)c1ccc(C(=O)c2ccccc2C(=O)O)c(O)c1` , thank you. active
